Would you mind telling me the reported pIC50 of each entry?
# SYSTEM NAME: UniProt:P00740
# Sequence (P00740 227-461 limits assumed): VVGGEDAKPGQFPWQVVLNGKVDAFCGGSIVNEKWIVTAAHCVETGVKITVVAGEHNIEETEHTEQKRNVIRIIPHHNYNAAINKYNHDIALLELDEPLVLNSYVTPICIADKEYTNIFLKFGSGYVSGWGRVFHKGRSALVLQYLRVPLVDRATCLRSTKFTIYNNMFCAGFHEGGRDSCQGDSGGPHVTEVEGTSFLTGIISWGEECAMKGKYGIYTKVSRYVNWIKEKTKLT
# Sequence (P00740 47-191 partner limits assumed): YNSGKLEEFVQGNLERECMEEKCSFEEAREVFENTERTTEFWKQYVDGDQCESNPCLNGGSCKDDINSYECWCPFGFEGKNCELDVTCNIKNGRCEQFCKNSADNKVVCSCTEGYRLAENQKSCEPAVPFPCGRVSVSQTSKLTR
# PROTOCOL NOTES: Inhibition of FIXa, chromogenic substrate hydrolysis assay
# CONDITIONS: FIXa, pH 7.4, 37 °C
pIC50: −log10 of the molar value.

[
  {
    "RECORD SMILES": "COC(=O)c1nc(N)n(C(=O)c2ccccc2Cl)n1",
    "pIC50": "< 3.70"
  }
]

We now examine a further compound.
*Q* Value lookup for pIC50; key = COC(=O)c1nc(N)n(C(=O)c2cc(OC)c(OC)c(OC)c2)n1
*A* < 3.74

###

Would you mind telling me the reported HS (Hill slope) of each entry?
# SYSTEM NAME: thrombin (factor IIa) (Homo sapiens, UniProt P00734)
# Construct: The prothrombinase complex converts prothrombin (FII) to thrombin (FIIa); purchased Haematologic Technologies (Essex Junction, VT); host or cells: human plasma
# PROTOCOL NOTES: Inhibition of thrombin, chromogenic substrate hydrolysis assay
# Type: biochemical
# CONDITIONS: thrombin
One number for each entry.

Check out these entries, answers already filled in.
[
  {
    "MOLECULE": "COc1cc(OC)cc(C(=O)n2cnnc2N)c1 [compound 30]",
    "PROPERTY MEASURED": "HS (Hill slope)",
    "QUANTITATIVE READOUT": 1.0
  },
  {
    "MOLECULE": "COC(=O)c1nc(N)n(C(=O)c2ccc(F)cc2)n1 [compound 22]",
    "PROPERTY MEASURED": "HS (Hill slope)",
    "QUANTITATIVE READOUT": 1.2
  },
  {
    "MOLECULE": "COC(=O)c1nc(N)n(C(=O)c2ccc(Br)cc2)n1 [compound 21]",
    "PROPERTY MEASURED": "HS (Hill slope)",
    "QUANTITATIVE READOUT": 0.5
  },
  {
    "MOLECULE": "COC(=O)c1nc(N)n(C(=O)c2ccccc2)n1 [compound 9]",
    "PROPERTY MEASURED": "HS (Hill slope)",
    "QUANTITATIVE READOUT": 1.1
  },
  {
    "MOLECULE": "COC(=O)c1nc(N)n(C(=O)c2cc(OC)c(OC)c(OC)c2)n1 [compound 8]",
    "PROPERTY MEASURED": "HS (Hill slope)",
    "QUANTITATIVE READOUT": 0.9
  }
]

We now examine a further molecule.
*Q* Value lookup for HS (Hill slope); key = COC(=O)c1nc(N)n(C(=O)c2ccccc2Br)n1 [compound 20]
*A* 0.9

###

Would you mind telling me the reported ΔY (%) of each entry?
# SYSTEM NAME: thrombin (factor IIa) (Homo sapiens, UniProt P00734)
# Construct: The prothrombinase complex converts prothrombin (FII) to thrombin (FIIa); purchased Haematologic Technologies (Essex Junction, VT); host or cells: human plasma
# PROTOCOL NOTES: Inhibition of thrombin, chromogenic substrate hydrolysis assay
# Assay type: biochemical
# CONDITIONS: thrombin
Give bare numbers, in %.

Check out these entries, answers already filled in.
[
  {
    "RECORD SMILES": "COC(=O)c1nc(N)n(C(=O)c2ccccc2)n1",
    "ΔY (%)": 89
  },
  {
    "RECORD SMILES": "COC(=O)c1nc(N)n(C(=O)c2ccc(Br)cc2)n1",
    "ΔY (%)": 112
  },
  {
    "RECORD SMILES": "COC(=O)c1nc(N)n(C(=O)c2ccc(F)cc2)n1",
    "ΔY (%)": 118
  },
  {
    "RECORD SMILES": "COC(=O)c1nc(N)n(C(=O)c2cc(OC)c(OC)c(OC)c2)n1",
    "ΔY (%)": 102.0
  },
  {
    "RECORD SMILES": "COc1cc(OC)cc(C(=O)n2cnnc2N)c1",
    "ΔY (%)": 53
  }
]

We now examine a further compound.
*Q* Missing value: ΔY (%), thrombin (factor IIa) (Homo sapiens, UniProt P00734), entry COC(=O)c1nc(N)n(C(=O)c2ccccc2Br)n1 . Fill in?
*A* 113

###

Would you mind telling me the reported pIC50 of each entry?
# SYSTEM NAME: thrombin (factor IIa) (Homo sapiens)
# Construct: The prothrombinase complex converts prothrombin (FII) to thrombin (FIIa); purchased Haematologic Technologies (Essex Junction, VT); host or cells: human plasma
# PROTOCOL NOTES: Inhibition of thrombin, chromogenic substrate hydrolysis assay
# Assay type: biochemical
# CONDITIONS: thrombin, pH 7.4, 37 °C
Answers are plain numbers, as −log10 of the molar value.

# batch size: 4; output pIC50 per entry
1. COC(=O)c1nc(N)n(C(=O)c2ccccc2Br)n1
2. COC(=O)c1nc(N)n(C(=O)c2ccccc2)n1
3. COc1cc(OC)cc(C(=O)n2cnnc2N)c1
4. COC(=O)c1nc(N)n(C(=O)c2cc(OC)c(OC)c(OC)c2)n1

*A*
1. 7.05
2. 7.27
3. 6.60
4. 7.72

# batch size: 2; output pIC50 per entry
1. COC(=O)c1nc(N)n(C(=O)c2ccc(Br)cc2)n1
2. COC(=O)c1nc(N)n(C(=O)c2ccc(F)cc2)n1

*A*
1. 6.05
2. 6.52

###

Would you mind telling me the reported selectivity index (IC50 enzyme/IC50 FXIIa) of each entry?
# SYSTEM NAME: FXIa (Homo sapiens, UniProt P03951)
# Construct: purchased Haematologic Technologies (Essex Junction, VT); host or cells: human plasma
# Sequence (P03951 388-625 limits assumed): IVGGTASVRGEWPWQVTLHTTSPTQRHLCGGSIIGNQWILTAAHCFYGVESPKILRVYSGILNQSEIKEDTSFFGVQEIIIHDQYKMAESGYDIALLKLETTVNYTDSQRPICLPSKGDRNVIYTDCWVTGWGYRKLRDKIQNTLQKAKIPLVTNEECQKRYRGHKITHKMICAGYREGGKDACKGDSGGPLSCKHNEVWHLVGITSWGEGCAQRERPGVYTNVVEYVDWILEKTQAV
# Sequence (P03951 19-387 partner limits assumed): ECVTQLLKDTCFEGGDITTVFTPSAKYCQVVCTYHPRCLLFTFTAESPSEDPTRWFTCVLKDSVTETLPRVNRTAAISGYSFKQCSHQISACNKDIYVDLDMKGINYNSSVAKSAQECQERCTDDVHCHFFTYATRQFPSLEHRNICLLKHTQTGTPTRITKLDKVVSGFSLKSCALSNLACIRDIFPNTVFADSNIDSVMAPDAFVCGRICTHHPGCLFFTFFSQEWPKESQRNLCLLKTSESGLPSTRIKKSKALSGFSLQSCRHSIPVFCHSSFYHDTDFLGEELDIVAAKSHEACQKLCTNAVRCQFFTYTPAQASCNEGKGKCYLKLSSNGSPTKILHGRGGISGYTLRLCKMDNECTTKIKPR
# PROTOCOL NOTES: Inhibition of FXIa, chromogenic substrate hydrolysis assay
# Assay type: biochemical
# CONDITIONS: FXIa over FXIIa

[
  {
    "RECORD SMILES": "COC(=O)c1nc(N)n(C(=O)c2cc(OC)c(OC)c(OC)c2)n1",
    "RESULT": 331.11
  },
  {
    "RECORD SMILES": "COC(=O)c1nc(N)n(C(=O)c2ccc(Br)cc2)n1",
    "RESULT": ">55.56"
  },
  {
    "RECORD SMILES": "COC(=O)c1nc(N)n(C(=O)c2ccccc2Br)n1",
    "RESULT": ">625"
  }
]

We now examine a further molecule.
*Q* Value lookup for selectivity index (IC50 enzyme/IC50 FXIIa); key = COC(=O)c1nc(N)n(C(=O)c2ccc(F)cc2)n1
*A* >1562.50

###

# SYSTEM NAME: UniProt P03951
# PROTOCOL NOTES: Inhibition of FXIa, chromogenic substrate hydrolysis assay
# CONDITIONS: FXIa, pH 7.4, 37 °C
Would you mind telling me the reported IC50 of each entry?

Check out these entries, answers already filled in.
[
  {
    "RECORD SMILES": "COC(=O)c1nc(N)n(C(=O)c2ccc(F)cc2)n1",
    "IC50": "> 50 µM"
  },
  {
    "RECORD SMILES": "COC(=O)c1nc(N)n(C(=O)c2ccc(Br)cc2)n1",
    "IC50": "> 50 µM"
  },
  {
    "RECORD SMILES": "COC(=O)c1nc(N)n(C(=O)c2cc(OC)c(OC)c(OC)c2)n1",
    "IC50": "14.9 µM"
  },
  {
    "RECORD SMILES": "COC(=O)c1nc(N)n(C(=O)c2ccccc2Cl)n1",
    "IC50": "25.9 µM"
  },
  {
    "RECORD SMILES": "COC(=O)c1nc(N)n(C(=O)c2ccccc2Br)n1",
    "IC50": "> 50 µM"
  }
]

# batch size: 2; output IC50 per entry
1. COC(=O)c1nc(N)n(C(=O)c2ccccc2)n1
2. Cc1cccc(C(=O)n2cnnc2N)c1

*A*
["> 50 µM", "> 50 µM"]

###

# SYSTEM NAME: human FXIIa (Homo sapiens)
# Sequence (P00748 373-615 limits assumed): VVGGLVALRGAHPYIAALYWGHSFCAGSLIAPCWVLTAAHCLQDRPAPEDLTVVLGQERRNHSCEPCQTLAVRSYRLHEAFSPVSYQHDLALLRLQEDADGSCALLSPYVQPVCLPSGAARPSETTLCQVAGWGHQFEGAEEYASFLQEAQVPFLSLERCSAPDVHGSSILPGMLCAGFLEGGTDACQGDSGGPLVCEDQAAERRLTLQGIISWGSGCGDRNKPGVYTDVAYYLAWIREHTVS
# Sequence (P00748 20-372 partner limits assumed): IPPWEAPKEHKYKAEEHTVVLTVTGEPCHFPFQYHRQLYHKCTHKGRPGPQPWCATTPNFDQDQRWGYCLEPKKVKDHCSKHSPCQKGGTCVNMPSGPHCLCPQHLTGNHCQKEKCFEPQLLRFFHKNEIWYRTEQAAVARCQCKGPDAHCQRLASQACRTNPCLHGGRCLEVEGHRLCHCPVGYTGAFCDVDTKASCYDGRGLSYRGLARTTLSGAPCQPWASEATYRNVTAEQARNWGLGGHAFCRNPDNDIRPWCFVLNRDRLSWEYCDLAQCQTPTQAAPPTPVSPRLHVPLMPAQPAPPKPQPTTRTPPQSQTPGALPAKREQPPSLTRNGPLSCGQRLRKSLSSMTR
# PROTOCOL NOTES: Direct inhibition of human FXIIa, chromogenic substrate hydrolysis assay
# CONDITIONS: human FXIIa, pH 7.4, 37 °C
Hi, to clarify the labels: satisfied covers HS (Hill slope) from 0.9 upward, not satisfied covers anything below 0.9.

Record excerpt, results attached:
[
  {
    "COMPOUND": "COC(=O)c1nc(N)n(C(=O)c2ccc(F)cc2)n1",
    "GROUP": "not satisfied"
  },
  {
    "COMPOUND": "COC(=O)c1nc(N)n(C(=O)c2ccccc2Br)n1",
    "GROUP": "not satisfied"
  },
  {
    "COMPOUND": "COC(=O)c1nc(N)n(C(=O)c2ccccc2)n1",
    "GROUP": "satisfied"
  },
  {
    "COMPOUND": "COC(=O)c1nc(N)n(C(=O)c2ccc(C(C)(C)C)cc2)n1 [RA, reference compound]",
    "GROUP": "satisfied"
  }
]

*Q* Can COC(=O)c1nc(N)n(C(=O)c2cc(OC)c(OC)c(OC)c2)n1 be said to have HS (Hill slope) at or above 0.9?
*A* satisfied

Source: paper PMC10918664
